# Test system: 786-0 renal
# assay_notes: NCI-60 one-dose screen, 48 h
# condition_label: 10 µM unless noted
Compounds without any hit were thinned out: in the full panel of roughly 83,000, 20% have a hit. Active and inactive are the calls of the source. How the source made its calls: active means growth percent below 10; inactive means the rest.
API: response.call in active, inactive

Some solved entries appear below for comparison.
Query block: Please indicate how the test categorized CO[C@H](/C(C)=C/C=C/C(C)=C/c1coc(C)n1)[C@H](C)[C@H]1C[C@@H](O)[C@@]2(C)O[C@H]2/C=C/[C@@H](C)[C@@H]2C[C@@H](CC(=O)O2)C[C@H]2O[C@@H]2C(=O)O1 .
Result block: inactive

Query block: Please indicate how the test categorized CC[C@@]1(O)C[C@H](OC2CC(N(C)C)C(O)C(C)O2)c2c(O)c3c(c(O)c2[C@H]1OC1CC(N(C)C)C(O)C(C)O1)C(=O)c1cccc(O)c1C3=O (stereo partly specified) .
Result block: active

Query block: Please indicate how the test categorized O=C1c2ccccc2C(=O)C(Cl)C1Cl (stereo unspecified) .
Result block: inactive

Query block: Please indicate how the test categorized CCOC(=O)C(NC(=O)C(Cc1ccc(N(CCCl)CCCl)cc1)NC(C)=O)C(C)C (stereo unspecified) .
Result block: inactive

Query block: Please indicate how the test categorized Oc1cc[c]([Hg][Cl])cc1 .
Result block: inactive

Query block: Please indicate how the test categorized C[C@H]1CCC/C=C/[C@@H]2C[C@H](O)C[C@H]2[C@H](O)/C=C/C(=O)O1 .
Result block: active

Query block: Please indicate how the test categorized Cc1c(N)nc([C@H](CC(N)=O)NC[C@H](N)C(N)=O)nc1C(=O)N[C@H](C(=O)N[C@H](C)[C@@H](O)[C@H](C)C(=O)N[C@H](C(=O)NCCc1nc(-c2nc(C(=O)NCCC[S+](C)C)cs2)cs1)[C@@H](C)O)C(OC1OC(CO)C(O)C(O)C1OC1OC(CO)C(O)C(OC(N)=O)C1O)c1cnc[nH]1 (stereo partly specified) .
Result block: inactive

Query block: Please indicate how the test categorized COc1ccc(OC)c(/C=C/[N+](=O)[O-])c1 .
Result block: active

More entries:
Query block: Please indicate how the test categorized CC[n+]1c(-c2ccccc2)c2cc(N)ccc2c2ccc(N)cc21 .
Result block: inactive

Query block: Please indicate how the test categorized CC1=C2C(=O)[C@H]3[C@@H](CC=C4C[C@@H](O)CC[C@@]43C)[C@@H]2CC[C@]12O[C@@H]1C[C@H](C)CN[C@H]1[C@H]2C .
Result block: inactive

Query block: Please indicate how the test categorized COC1CC(CC2CCC(C)C(C(C)C(=O)O)O2)OC2(OC(C)(C3CCC(C)(C4OC(C5OC(O)(CO)C(C)CC5C)CC4C)O3)CC2C)C1C (stereo unspecified) .
Result block: active

Query block: Please indicate how the test categorized CCC(=O)OC1CCn2c1nc1c2C(=O)C(C)=C(N2CC2)C1=O (stereo unspecified) .
Result block: active

Query block: Please indicate how the test categorized CC1=C(CO)C2=C(C)C3(CC3)[C@@](C)(O)C(=O)C2=C1 .
Result block: active

Query block: Please indicate how the test categorized NCCc1ccc(OCc2ccccc2)c(OCc2ccccc2)c1 .
Result block: inactive

Query block: Please indicate how the test categorized Cc1cc(N=Nc2ccccc2C)ccc1N .
Result block: active

Query block: Please indicate how the test categorized CC[C@@]1(O)C[C@H](OC2CC(N(C)C)C(OC3CC(O)C(OC4CCC(=O)C(C)O4)C(C)O3)C(C)O2)c2c(cc3c(c2O)C(=O)c2c(O)ccc(O)c2C3=O)[C@H]1C(=O)OC (stereo partly specified) .
Result block: inactive
